System: LOX IMVI
Test: Effective dose to show cytotoxicity against melanomaLOX IMVI cell line was determined
Assay type: functional
Settings: Homo sapiens, read-out: ED50 (the source's name)
Measured Metric: EC50 (nM)
Report the figure in nM without appending any unit label.

Ask: Please give measured EC50 of the following entry: Cc1c2ccncc2c(C)c2c1[nH]c1ccc(CO)cc12
Reply: 370

---

System: SNB-19
Experiment: Effective dose to show cytotoxicity against CNS cancer SNB-19 cell line was determined
Assay type: functional
Details: Homo sapiens, read-out: ED50 (the source's name)
Measured Metric: pEC50
# pEC50 is unitless: minus log10 of the molar concentration; print number only

Ask: State, for SNB-19, measured pEC50 of the compound listed here: Cc1c2ccncc2c(C)c2c1[nH]c1ccc(CO)cc12
Reply: 6.68

---

Test system: SNB-75
Test: Effective dose to show cytotoxicity against CNS cancer SNB-75 cell line was determined
Format: functional
Settings: Homo sapiens, read-out: ED50 (the source's name)
Measured Metric: pEC50
Answer as the number alone; pEC50 is minus log10 of concentration in mol/L.

Ask: Supply pEC50 value. Item: Cc1c2ccncc2c(C)c2c1[nH]c1ccc(CO)cc12
Reply: 6.31

---

System: MOLT-4
Test: The compound was evaluated for cytotoxicity against MOLT-4 leukemia cell line
Type: functional
Conditions: Homo sapiens
Measured Metric: GI50 (nM)
// note: answer is a bare numeric in nM

Record excerpt, results attached:
Cc1c2ccncc2c(C)c2c1[nH]c1ccc(CNCCN(C)C)cc12 ... 100
Cc1c2ccncc2c(C)c2c1[nH]c1ccc(CO)cc12 ... 10
CCN(CC)CCNCc1ccc2[nH]c3c(C)c4ccncc4c(C)c3c2c1 ... 10

Ask: GET GI50 | system: MOLT-4 | item: Cc1c2ccncc2c(C)c2c1[nH]c1ccc(CN(CCO)CCO)cc12
Reply: 20

---

Test system: OVCAR-8
Test: Effective dose to show cytotoxicity against ovarian cancer OVCAR-8 cell line was determined
Type: functional
Conditions: Homo sapiens, read-out: ED50 (the source's name)
Measured Metric: pEC50
Please report pEC50 as the negative decimal logarithm of the molar concentration, giving only the number.

Ask: Give measured pEC50 for Cc1c2ccncc2c(C)c2c1[nH]c1ccc(CO)cc12 (OVCAR-8).
Reply: 6.38

---

System: U-251
Test: Effective dose to show cytotoxicity against CNS cancer U251 cell line was determined
Format: functional
Conditions: Homo sapiens, read-out: ED50 (the source's name)
Measured Metric: pEC50
Schema: pEC50 number; meaning minus log10 of the concentration expressed in molar units.

Ask: Find the measured pEC50 of Cc1c2ccncc2c(C)c2c1[nH]c1ccc(CO)cc12 and report it.
Reply: 6.55

---

System: T47D
Assay: Effective dose to show cytotoxicity against breast cancer T-47D cell line was determined
Format: functional
Settings: Homo sapiens, read-out: ED50 (the source's name)
Measured Metric: EC50 (nM)
# output: bare number, implied unit nM

Ask: Send back T47D EC50 of Cc1c2ccncc2c(C)c2c1[nH]c1ccc(CO)cc12 only.
Reply: 1420

---

Test system: CAKI-1
Assay: Effective dose to show cytotoxicity against renal cancerCAKI-1 cell line was determined
Format: functional
Conditions: Homo sapiens, read-out: ED50 (the source's name)
Measured Metric: EC50 (nM)
// units = nM; emit number, no label

Ask: Name the recorded EC50 of the item Cc1c2ccncc2c(C)c2c1[nH]c1ccc(CO)cc12 in your answer.
Reply: 370
